Tested on: SK.ES1
runDescription: Cytotoxicity, resazurin fluorescence, SK.ES1
Format: cell-based
settings: Homo sapiens, SK-ES1; Table 6; 72 hr; EWS cells
GI50 under 20 nM gets 1, anything at or over 20 nM gets -1.

Some solved entries appear below for comparison.
>>> classification("COC(C(=NOCCNC(=O)c1[nH]c2ccc(Cl)cc2c1-c1c(C)noc1C)C(O)C(C)O)C1Cc2cc3cc(OC4CC(OC5CC(O)C(O)C(C)O5)C(O)C(C)O4)c(C)c(O)c3c(O)c2C(=O)C1OC1CC(OC2CC(OC3CC(C)(O)C(O)C(C)O3)C(O)C(C)O2)C(O)C(C)O1 (centres unmarked)")
1
>>> classification("COC(C(=NOCCNC(=O)c1cc2cc(Br)ccc2[nH]1)C(O)C(C)O)C1Cc2cc3cc(OC4CC(OC5CC(O)C(O)C(C)O5)C(O)C(C)O4)c(C)c(O)c3c(O)c2C(=O)C1OC1CC(OC2CC(OC3CC(C)(O)C(O)C(C)O3)C(O)C(C)O2)C(O)C(C)O1 (centres unmarked)")
-1
>>> classification("CO[C@H](C(=NOCCNC(=O)c1cc2cc(OC(F)(F)F)ccc2[nH]1)[C@@H](O)[C@@H](C)O)[C@@H]1Cc2cc3cc(O[C@H]4C[C@@H](O[C@H]5C[C@@H](O)[C@H](O)[C@@H](C)O5)[C@H](O)[C@@H](C)O4)c(C)c(O)c3c(O)c2C(=O)[C@H]1O[C@H]1C[C@@H](O[C@H]2C[C@@H](O[C@H]3C[C@](C)(O)[C@H](O)[C@@H](C)O3)[C@@H](O)[C@@H](C)O2)[C@H](O)[C@@H](C)O1")
-1
>>> classification("CO[C@H](C(=NOCCNC(=O)c1cc2cc(F)ccc2[nH]1)[C@@H](O)[C@@H](C)O)[C@@H]1Cc2cc3cc(O[C@H]4C[C@@H](O[C@H]5C[C@@H](O)[C@H](O)[C@@H](C)O5)[C@H](O)[C@@H](C)O4)c(C)c(O)c3c(O)c2C(=O)[C@H]1O[C@H]1C[C@@H](O[C@H]2C[C@@H](O[C@H]3C[C@](C)(O)[C@H](O)[C@@H](C)O3)[C@@H](O)[C@@H](C)O2)[C@H](O)[C@@H](C)O1")
-1

Does COC(C(=NOCc1cc2ccccc2[nH]1)C(O)C(C)O)C1Cc2cc3cc(OC4CC(OC5CC(O)C(O)C(C)O5)C(O)C(C)O4)c(C)c(O)c3c(O)c2C(=O)C1OC1CC(OC2CC(OC3CC(C)(O)C(O)C(C)O3)C(O)C(C)O2)C(O)C(C)O1 (centres unmarked) have GI50 strictly under 20 nM?
1
